test system: Hs578T; assay: normalised viability (% of control), CellTiter-Blue; higher = more viable cells (about 100 = DMSO control); settings: 100 nM; incubation time: 72 h
Please respond with fulfilled when measured normalised viability is strictly beneath 90%, and with not fulfilled in all other cases.

Sample answers from the record:
O=P(O)(NCCCl)NCCCl [Ifosfamide mustard] | fulfilled
C[C@@]1(C(=O)Nc2ccc(F)nc2)CCCN1c1nc(Nc2cc(C3CC3)n[nH]2)c2cccn2n1 | fulfilled
O=C(c1ccc(OCCN2CCCCC2)cc1)c1c(-c2ccc(O)cc2)sc2cc(O)ccc12 [Raloxifene] | not fulfilled
CN1CCN(c2ccc3nc(-c4c(N)c5c(F)cccc5[nH]c4=O)[nH]c3c2)CC1 [Dovitinib] | fulfilled
COC(=O)C[C@](O)(CCCC(C)(C)O)C(=O)O[C@@H]1C(OC)=C[C@]23CCCN2CCc2cc4c(cc2[C@H]13)OCO4 [Omacetaxine mepesuccinate] | fulfilled

Consider the additional compound presented here.
Is 90% strictly greater than the compound's reported normalised viability? compound: O=c1[nH]cc(F)c(=O)[nH]1 [Fluorouracil] not fulfilled

----------
test system: HDQ-P1; assay: normalised viability (% of control), CellTiter-Blue; higher = more viable cells (about 100 = DMSO control); conditions: incubation time: 72 h
Please respond with satisfied when measured normalised viability is strictly beneath 90%, and with not satisfied in all other cases.

Sample answers from the record:
COC(=O)C[C@](O)(CCCC(C)(C)O)C(=O)O[C@@H]1C(OC)=C[C@]23CCCN2CCc2cc4c(cc2[C@H]13)OCO4 [Omacetaxine mepesuccinate] (1000 nM) | satisfied
COC1=CC(c2cc3ccccc3[nH]2)=N/C1=C\c1[nH]c(C)cc1C [Obatoclax] (1000 nM) | satisfied
CCS(=O)(=O)c1cccc(-c2cc(C(=O)NC3CCN(C)CC3)c(C)c3[nH]c4ncc(C)cc4c23)c1 [TAK-901] (100 nM) | satisfied

Is 90% strictly greater than the compound's reported normalised viability? compound: COC1=C2C[C@@H](C)C[C@H](OC)[C@H](O)[C@@H](C)/C=C(\C)[C@H](OC(N)=O)[C@@H](OC)/C=C\C=C(/C)C(=O)NC(=CC1=O)C2=O [Geldanamycin] (1000 nM) satisfied

Is 90% strictly greater than the compound's reported normalised viability? compound: O=c1[nH]c(=O)n([C@H]2C[C@H](O)[C@@H](CO)O2)cc1F [Floxuridine] (1000 nM) satisfied

Is 90% strictly greater than the compound's reported normalised viability? compound: CCOc1cc2ncc(C#N)c(Nc3ccc(OCc4ccccn4)c(Cl)c3)c2cc1NC(=O)/C=C/CN(C)C [Neratinib] (100 nM) not satisfied

----------
system: DU-4475; assay: normalised viability (% of control), CellTiter-Blue; higher = more viable cells (about 100 = DMSO control); conditions: incubation time: 72 h
assay.metric: normalised viability (%)
The response must be a number in % with no trailing unit.

Consider the following illustrative entries.
Cn1c(=O)c(F)c(Nc2ccc(I)cc2F)c2c(=O)n(C[C@@H](O)CO)cnc21 [TAK-733] (100 nM) | 0.99
C[C@@]1(C(=O)Nc2ccc(F)nc2)CCCN1c1nc(Nc2cc(C3CC3)n[nH]2)c2cccn2n1 (1000 nM) | 78.6
CC(C)C[C@H](NC(=O)[C@H](Cc1ccccc1)NC(=O)c1cnccn1)B(O)O [Bortezomib] (100 nM) | 2.48

So what does the record say about normalised viability for COc1cc(Nc2ncc(F)c(Nc3ccc4c(n3)NC(=O)C(C)(C)O4)n2)cc(OC)c1OC [R406] (1000 nM) ? 105

So what does the record say about normalised viability for COc1ccc(C2=N[C@@H](c3ccc(Cl)cc3)[C@@H](c3ccc(Cl)cc3)N2C(=O)N2CCNC(=O)C2)c(OC(C)C)c1 [Nutlin-3] (1000 nM) ? 94.7

So what does the record say about normalised viability for C#Cc1cccc(Nc2ncnc3cc(OC)c(OCCCCCCC(=O)NO)cc23)c1 [CUDC-101] (1000 nM) ? 60.9

So what does the record say about normalised viability for COC1=C2C[C@@H](C)C[C@H](OC)[C@H](O)[C@@H](C)/C=C(\C)[C@H](OC(N)=O)[C@@H](OC)/C=C\C=C(/C)C(=O)NC(=CC1=O)C2=O [Geldanamycin] (1000 nM) ? 0.05

So what does the record say about normalised viability for O=C(c1ccc(OCCN2CCCCC2)cc1)c1c(-c2ccc(O)cc2)sc2cc(O)ccc12 [Raloxifene] (1000 nM) ? 86.2
